Recorded IC50 for molecules tested on C-C chemokine receptor type 5 (Homo sapiens, UniProt P51681), drawn from a number of studies.

Sample records with IC50:
| molecule | IC50 |
| --- | --- |
| CC1=CCC[C@H]1NC(=O)Nc1ccc(Cl)c(S(=O)(=O)[C@@]2(C)CCOC2)c1O | > 10 µM |
| COc1cccc(C(CCN2CCC(c3ccccc3)CC2)CN(C)S(=O)(=O)c2ccccc2)c1 (stereo not drawn) | > 1 µM |

With those in mind, consider the next molecule.
Notebook: NCCCCN(Cc1nc2ccccc2[nH]1)[C@H]1CCCc2cccnc21 , IC50 read as > 10 µM
